Recorded values, source patent US5308844A.

target: 5HT1 A receptors (Rattus norvegicus); construct: The hippocampus is ground in a Polytrone; from tissue; host or cells: rat hippocampus membranes (male Charles River rats); experiment: 5HT1 A binding (3H-8-OH-DPAT, hippocampus membranes); parameters: species or system Male Charles River rats; conditions: 3H-8-OH-DPAT ligand 1 nM, 30 min at 25° C.
Sequence (P19327 whole entry): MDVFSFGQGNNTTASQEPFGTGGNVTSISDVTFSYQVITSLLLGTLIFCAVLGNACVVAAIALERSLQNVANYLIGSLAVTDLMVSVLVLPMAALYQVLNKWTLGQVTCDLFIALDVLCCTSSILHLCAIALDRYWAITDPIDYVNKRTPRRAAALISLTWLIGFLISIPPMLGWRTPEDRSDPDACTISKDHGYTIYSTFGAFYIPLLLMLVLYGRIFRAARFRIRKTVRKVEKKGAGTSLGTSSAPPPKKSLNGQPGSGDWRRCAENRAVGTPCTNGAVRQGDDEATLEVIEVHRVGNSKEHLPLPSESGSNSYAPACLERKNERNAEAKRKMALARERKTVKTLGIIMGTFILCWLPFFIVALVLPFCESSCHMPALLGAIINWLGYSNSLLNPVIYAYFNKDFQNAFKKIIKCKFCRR
readout-label: IC50 (nM)

>>> reported("COc1ccccc1N1CCN(CCN2COc3ccccc3C2=O)CC1 [Example 5]")
5
>>> reported("O=C1c2ccccc2OCN1CCCCN1CCN(c2cccc(C(F)(F)F)c2)CC1 [Example 1]")
7

----------
Form field: solubility (one value per entry).
assay: solubility; assay type: physicochemical; conditions: water, in water; read-out: soluble in water up to
readout-label: solubility

>>> reported("O=C1c2ccccc2OCN1CCCN1CCN(c2ccccc2)CC1")
"≤ 10000 µg/mL"
>>> reported("O=C1c2ccccc2OCN1CCN1CCN(c2ccccn2)CC1")
"≤ 3000 µg/mL"
>>> reported("O=C1c2ccccc2OCN1CCCCN1CCN(c2ccccc2)CC1")
"≤ 5000 µg/mL"
>>> reported("O=C1c2ccccc2OCN1CCN1CCN(c2ncccn2)CC1")
"≤ 12000 µg/mL"
>>> reported("COc1cc2c(cc1OC)C(=O)N(CCCCN1CCN(c3ccccc3OC)CC1)CO2")
"≤ 2000 µg/mL"
>>> reported("O=C1c2ccccc2OCN1CCN1CCN(c2ccccc2)CC1")
"≤ 10000 µg/mL"
>>> reported("Cc1ccccc1N1CCN(CCN2COc3ccccc3C2=O)CC1")
"≤ 3500 µg/mL"
>>> reported("COc1ccccc1N1CCN(CCCCN2COc3ccccc3C2=O)CC1")
"≤ 30000 µg/mL"
>>> reported("COc1ccccc1N1CCN(CCCN2COc3ccccc3C2=O)CC1")
"≤ 5000 µg/mL"

----------
experiment: solubility; format: physicochemical; conditions: in DMSO
readout-label: soluble in DMSO up to

>>> reported("COc1ccc(N2CCN(CCCCN3COc4cc(OC)c(OC)cc4C3=O)CC2)cc1OC")
"up to 2%"
>>> reported("COc1ccc2c(c1)C(=O)N(CCN1CCN(c3cccc(C(F)(F)F)c3)CC1)CO2")
"up to 7%"
>>> reported("CC1Oc2ccccc2C(=O)N1CCN1CCN(c2cccc(C(F)(F)F)c2)CC1 (racemic)")
"up to 2%"
>>> reported("O=C1c2ccccc2OCN1CCN1CCN(c2cccc(C(F)(F)F)c2)CC1")
"up to 7%"
